All values here come from paper PMC5112770.

# assayed-system: tau (Homo sapiens)
# Format: biochemical
readout-kind: pIC50
// scale note: pIC50 = -log10(conc_M); give the bare number

Can you look up the measured pIC50 of CC[C@H](C)/C=C(C)/C=C/C1=CC2=C(Br)C(=O)C(C)(OC(C)=O)C(=O)C2=CO1 (stereo partly shown) for me?
4.25

---

# assayed-system: tau (Homo sapiens, UniProt P10636)
# Sequence (P10636 1-441 isoform P10636-8): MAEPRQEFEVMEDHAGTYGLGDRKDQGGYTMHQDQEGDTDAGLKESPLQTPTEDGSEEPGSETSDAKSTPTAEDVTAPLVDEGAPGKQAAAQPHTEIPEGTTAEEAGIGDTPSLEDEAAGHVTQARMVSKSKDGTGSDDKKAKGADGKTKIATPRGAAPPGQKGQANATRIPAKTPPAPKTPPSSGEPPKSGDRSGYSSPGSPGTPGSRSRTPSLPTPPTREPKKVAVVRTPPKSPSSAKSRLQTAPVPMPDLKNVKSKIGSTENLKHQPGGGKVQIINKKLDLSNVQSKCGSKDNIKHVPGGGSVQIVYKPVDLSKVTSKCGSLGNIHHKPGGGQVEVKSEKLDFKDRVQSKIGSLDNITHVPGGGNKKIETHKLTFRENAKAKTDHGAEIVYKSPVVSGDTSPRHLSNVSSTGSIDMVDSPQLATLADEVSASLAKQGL
# Type: biochemical
readout-kind: IC50 (µM)
Form entry: value (µM) — number only.

Can you look up the measured IC50 of CC[C@H](C)/C=C(C)/C=C/C1=CC2=C(Br)C(=O)C(C)(O)C(=O)C2=CO1 (stereo partly shown) for me?
216
